Values were extracted from paper PMC9911399.

Items are presented alongside their recorded binding signal.
Molecular target: T1, RBFOX1 RRM RbFoxmut (Fox-RRM*) (Homo sapiens, UniProt Q9NWB1 109-208, R118D;E147R;N151S;E152T)
T1 sequence: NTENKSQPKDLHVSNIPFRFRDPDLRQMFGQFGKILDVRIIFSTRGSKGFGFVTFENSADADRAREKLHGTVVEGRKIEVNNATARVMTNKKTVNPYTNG
Assay: EMSA; HiTS-Eq, 1 nM pool, 10 min; buffer printed only for the single-RNA assays: 10 mM Tris pH 7.5, 150 mM NaCl, 3.4 mM EDTA, 0.001% NP-40, 30 C
Conditions: tags: His6 N-terminal (pET28a); label: 5' 32P
Over roughly 16,000 sequences, “ka relative to ugcaugu” has its median near 0.096; the highest 2% begin near 0.35. This excerpt belongs to a sample that is enriched for the highest values.

Problem: Returns the measured binding signal for the input binder. Input: AACUUUU (DNA:RNA) RNA: GGGAGACCGGAAUUCAGAUUGUCCAACUUUUUUAAAUCCCGUCGUAGCCACCA DNA 1: CAATCTGAATTCCGGTCTCCC DNA 2: TGGTGGCTACGACGGGATT
Result: 0.0643 KA relative to UGCAUGU

Problem: Returns the measured binding signal for the input binder. Input: UUAUUAA (DNA:RNA) RNA: GGGAGACCGGAAUUCAGAUUGUCCUUAUUAAUUAAAUCCCGUCGUAGCCACCA DNA 1: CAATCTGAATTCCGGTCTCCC DNA 2: TGGTGGCTACGACGGGATT
Result: 0.0751 KA relative to UGCAUGU

Problem: Returns the measured binding signal for the input binder. Input: UGUACCC (DNA:RNA) RNA: GGGAGACCGGAAUUCAGAUUGUCCUGUACCCUUAAAUCCCGUCGUAGCCACCA DNA 1: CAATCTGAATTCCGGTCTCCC DNA 2: TGGTGGCTACGACGGGATT
Result: 0.0834 KA relative to UGCAUGU

Problem: Returns the measured binding signal for the input binder. Input: GCAUCGA (DNA:RNA) RNA: GGGAGACCGGAAUUCAGAUUGUCCGCAUCGAUUAAAUCCCGUCGUAGCCACCA DNA 1: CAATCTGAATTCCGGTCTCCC DNA 2: TGGTGGCTACGACGGGATT
Result: 0.675 KA relative to UGCAUGU

Problem: Returns the measured binding signal for the input binder. Input: UCCUGUC (DNA:RNA) RNA: GGGAGACCGGAAUUCAGAUUGUCCUCCUGUCUUAAAUCCCGUCGUAGCCACCA DNA 1: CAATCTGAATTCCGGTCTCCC DNA 2: TGGTGGCTACGACGGGATT
Result: 0.164 KA relative to UGCAUGU

Problem: Returns the measured binding signal for the input binder. Input: CUCCUAG (DNA:RNA) RNA: GGGAGACCGGAAUUCAGAUUGUCCCUCCUAGUUAAAUCCCGUCGUAGCCACCA DNA 1: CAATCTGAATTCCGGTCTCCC DNA 2: TGGTGGCTACGACGGGATT
Result: 0.0819 KA relative to UGCAUGU

Problem: Returns the measured binding signal for the input binder. Input: UACGGGG (DNA:RNA) RNA: GGGAGACCGGAAUUCAGAUUGUCCUACGGGGUUAAAUCCCGUCGUAGCCACCA DNA 1: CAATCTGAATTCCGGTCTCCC DNA 2: TGGTGGCTACGACGGGATT
Result: 0.0585 KA relative to UGCAUGU

Problem: Returns the measured binding signal for the input binder. Input: GCUCAGC (DNA:RNA) RNA: GGGAGACCGGAAUUCAGAUUGUCCGCUCAGCUUAAAUCCCGUCGUAGCCACCA DNA 1: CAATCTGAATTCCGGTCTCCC DNA 2: TGGTGGCTACGACGGGATT
Result: 0.0895 KA relative to UGCAUGU

Problem: Returns the measured binding signal for the input binder. Input: CUGGUGA (DNA:RNA) RNA: GGGAGACCGGAAUUCAGAUUGUCCCUGGUGAUUAAAUCCCGUCGUAGCCACCA DNA 1: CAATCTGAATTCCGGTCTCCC DNA 2: TGGTGGCTACGACGGGATT
Result: 0.0924 KA relative to UGCAUGU
